The values you see were collected from PubChem BioAssay (NCI).

# protocol_summary: NCI Yeast Anticancer Drug Screen. Data for the cln2 rad14 strain (AID 165);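 also: 0% = growth equal to vehicle treated cultures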
# measurement_setup: S. cerevisiae cln2 rad14 strain, at 50.0 µM, stronger effect = higher value
Compounds without any hit were thinned out: in the full panel of roughly 79,000, 15% have a hit.
We begin with a simple list: items and their reported growth inhibition.
measured_parameter: growth inhibition (%)

1. C=C1CC2(CC(C(C)C)CCC2C)OC1=O (centres undefined) :: 19.6
2. C=C(CSCCCCCCCCCCCC)C(=O)O :: 94.3
3. CN1CC[N+](C)(Cc2ccc(C[N+]3(C)CC[N+](C)(Cc4ccc(CCl)cc4)CC3)cc2)CC1 (centres undefined) :: 98.1
4. COc1cc(C(=O)[O][Sn]([c]2ccccc2)([c]2ccccc2)[c]2ccccc2)cc(OC)c1OC :: 89.2
5. O=C1C=CC(=O)N1C12CC3CC(CC(C3)C1)C2 :: 91.5
6. CNc1nc(N)nc(N(C)c2ccc(Br)cc2)c1N=O :: -30.7
7. Clc1cc[c]([Sn]([Cl])([O][Sn]([Cl])([c]2ccc(Cl)cc2)[c]2ccc(Cl)cc2)[c]2ccc(Cl)cc2)cc1 :: 81.5
8. O=C1OC(=O)C2C(c3ccccc3)=C(c3ccccc3)C(c3ccccc3)=C(c3ccccc3)C12 (centres undefined) :: 76.2
9. N#C/C(=C\c1ccc(Cl)cc1Cl)C(N)=S :: 86.8
10. CC[n+]1ccc(Nc2ccc(NC(=O)c3ccc(C(=O)Nc4ccc(Nc5cc[n+](CC)c(N)n5)cc4)cc3)cc2)nc1N :: 97.3
11. COc1ccc(NS(=O)(=O)c2ccc(F)cc2)cc1 :: 97.5
12. COC1CC(OC(=O)c2ccccc2)C(OC(=O)c2ccccc2)C(C)O1 (centres undefined) :: -16.4
13. CC(C)[C@H](N)C(=O)NCCNC(=O)[C@@H](N)C(C)C :: 17.2
14. CC1=C(C)C1[N+](=O)[O-] :: 24.4
